- TESTED_SYSTEM: endogenous glucagon receptor of primary rat hepatocytes (rat, UniProt P30082 27-485)
- Sequence (P30082 27-485): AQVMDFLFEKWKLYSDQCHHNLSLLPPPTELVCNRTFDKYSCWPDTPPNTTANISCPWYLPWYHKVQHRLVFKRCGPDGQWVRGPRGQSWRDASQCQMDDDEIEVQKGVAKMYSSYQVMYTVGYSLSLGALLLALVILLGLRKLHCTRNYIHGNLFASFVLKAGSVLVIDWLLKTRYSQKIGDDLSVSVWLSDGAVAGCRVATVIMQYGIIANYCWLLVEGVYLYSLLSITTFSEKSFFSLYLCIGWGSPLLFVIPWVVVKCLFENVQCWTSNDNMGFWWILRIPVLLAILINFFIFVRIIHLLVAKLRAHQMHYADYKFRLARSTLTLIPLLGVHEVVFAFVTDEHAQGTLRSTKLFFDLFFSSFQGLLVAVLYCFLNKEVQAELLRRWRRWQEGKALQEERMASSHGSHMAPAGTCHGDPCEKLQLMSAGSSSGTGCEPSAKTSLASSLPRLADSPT
- PROTOCOL_DESCRIPTION: cell-based or functional assay
*1 amine or outer side, *2 acyl side, *3 side chain or, on linkers, in order; H or OH if unused. Side-chain parts run from the residue outwards. [ ]: non-standard residue; d: D form. The star is where a group is joined. C18 diacid = O=C(O)CCCCCCCCCCCCCCCCC(=O)*; γGlu = O=C(O)[C@H](CCC(=O)[*:2])N[*:1]; Aib = CC(C)(N)C(=O)O
Flag rule - EC50 [nM] (inhibition of glycogen synthesis rate in primary rat hepatocytes) less than 0.3 nM flags 1.0; the remaining entries get 0.0.

BINDER | ANSWER_LABEL
HXQGTFTSDYSKYLDEKAAKDFIEWLESA (Aib at position 2; Lys 17 side chain conjugated to [17-carboxy-heptadecanoyl]-isoGlu; C-terminal amide) [H-H-Aib-QGTFTSDYSKYLDE-K([17-carboxy-heptadecanoyl]-isoGlu)-AAKDFIEWLESA-NH2] | 0.0
HXQGTFTSDYSKYLDERRAKDFIEWLEKA (Ac4c at position 2; Lys 28 side chain conjugated to [17-carboxy-heptadecanoyl]-isoGlu-GSGSGG; C-terminal amide) [H-H-Ac4c-QGTFTSDYSKYLDERRAKDFIEWLE-K([17-carboxy-heptadecanoyl]-isoGlu-GSGSGG)-A-NH2] | 1.0
HXQGTFTSDYSKYLDKRAAKDFIEWLESA (Ac4c at position 2; Lys 16 side chain conjugated to [17-carboxy-heptadecanoyl]-isoGlu-GSGSGG; C-terminal amide) [H-H-Ac4c-QGTFTSDYSKYLD-K([17-carboxy-heptadecanoyl]-isoGlu-GSGSGG)-RAAKDFIEWLESA-NH2] | 0.0
HXQGTFTSDYSKYLDERAAKDFIEWLEKA (Ac4c at position 2; Lys 28 side chain conjugated to [17-carboxy-heptadecanoyl]-isoGlu-GSGSGG; C-terminal amide) [H-H-Ac4c-QGTFTSDYSKYLDERAAKDFIEWLE-K([17-carboxy-heptadecanoyl]-isoGlu-GSGSGG)-A-NH2] | 0.0
H-H[Aib]QGTFTSDYSKYLDK([Peg3-Peg3-γGlu-C18 diacid])RAAKDFIEWLESA-NH2 [H-H-Aib-QGTFTSDYSKYLD-K([17-carboxy-heptadecanoyl]-isoGlu-Peg3-Peg3)-RAAKDFIEWLESA-NH2] | 1.0
HXQGTFTSDYSKYLDERRAKDFIKWLESA (Ac4c at position 2; Lys 24 side chain conjugated to [17-carboxy-heptadecanoyl]-isoGlu-GSGSGG; C-terminal amide) [H-H-Ac4c-QGTFTSDYSKYLDERRAKDFI-K([17-carboxy-heptadecanoyl]-isoGlu-GSGSGG)-WLESA-NH2] | 1.0
